Data provenance: patent US12441768B2

details: % Viability non-Wnt responsive cells; also: test concentration or dose not given here
Where a SMILES comes first, the peptide text is derived from it.
Metric: viability (%)

- Compound: "CC[C@H](C)[C@H](NC(=O)[C@H](CC(C)C)NC(=O)[C@H](Cc1ccccc1)NC(=O)[C@H](Cc1c[nH]c2ccccc12)NC(=O)[C@H](CCSC)NC(C)=O)C(=O)N[C@@H](CS)C(=O)N[C@@H](Cc1ccccc1)C(=O)N[C@@H](Cc1c[nH]c2ccccc12)C(=O)NCC(=O)O [compound 198] (Ac-MWFLICFWG-OH)"
  Value Unit: "%"
  Observed Measurement: 81.4
- Compound: "CC[C@H](C)[C@H](NC(=O)[C@H](CC(C)C)NC(=O)[C@H](CC1CCCCC1)NC(=O)[C@H](Cc1c[nH]c2ccccc12)NC(=O)[C@H](CCSC)NC(C)=O)C(=O)N[C@@H](CO)C(=O)N[C@@H](Cc1ccccc1)C(=O)N[C@@H](Cc1c[nH]c2ccccc12)C(=O)NCC(=O)O [compound 216] (HELM PEPTIDE1{[ac].M.W.[Cha].L.I.S.F.W.G}$$$$V2.0)"
  Value Unit: "%"
  Observed Measurement: 100
- Compound: "CC[C@H](C)[C@@H]1NC(=O)[C@H](CC(C)C)NC(=O)[C@H](Cc2ccccc2)NC(=O)[C@H](Cc2c[nH]c3ccccc23)NC(=O)[C@H](CCSC)NC(=O)[C@@H](NC(C)=O)CCCCNC(=O)CC[C@@H](C(=O)O)NC(=O)[C@H](Cc2c[nH]c3ccccc23)NC(=O)[C@H](Cc2ccccc2)NC(=O)[C@H](CS)NC1=O [compound 186] (HELM PEPTIDE1{[ac].K.M.W.F.L.I.C.F.W.E}$PEPTIDE1,PEPTIDE1,2:R3-11:R3$$$V2.0)"
  Value Unit: "%"
  Observed Measurement: 96.4

----------
viability values for the compounds below.
settings: % Viability non-Wnt responsive cells
Where a SMILES comes first, the peptide text is derived from it.

- Compound: "CC[C@H](C)[C@@H]1NC(=O)[C@H](CC(C)C)NC(=O)[C@H](Cc2ccccc2)NC(=O)[C@H](Cc2c[nH]c3ccccc23)NC(=O)[C@H](CCSC)NC(=O)[C@@H](N)CCCCNC(=O)C[C@@H](C(=O)O)NC(=O)[C@H](Cc2c[nH]c3ccccc23)NC(=O)[C@H](Cc2ccccc2)NC(=O)[C@H](CO)NC1=O [compound 171] (HELM PEPTIDE1{K.M.W.F.L.I.S.F.W.D}$PEPTIDE1,PEPTIDE1,1:R3-10:R3$$$V2.0)"
  Value Unit: "%"
  viability: 79.6
- Compound: "CC[C@H](C)[C@H](NC(=O)[C@H](CC(C)C)NC(=O)[C@H](Cc1ccccc1)NC(=O)[C@H](Cc1c[nH]c2ccccc12)NC(=O)[C@H](C)N)C(=O)N[C@@H](CO)C(=O)N[C@@H](Cc1ccccc1)C(=O)N[C@@H](Cc1c[nH]c2ccccc12)C(=O)NCC(=O)O [compound 209] (H-AWFLISFWG-OH)"
  Value Unit: "%"
  viability: 91
- Compound: "CC[C@H](C)[C@H](NC(=O)[C@H](CC(C)C)NC(=O)[C@H](Cc1ccccc1)NC(=O)[C@H](Cc1c[nH]c2ccccc12)NC(=O)[C@H](CCCNC(=N)N)NC(=O)[C@H](CCCNC(=N)N)NC(=O)[C@H](CO)NC(=O)[C@@H](N)CCSC)C(=O)N[C@@H](CO)C(=O)N[C@@H](Cc1ccccc1)C(=O)N[C@@H](Cc1c[nH]c2ccccc12)C(N)=O [compound 75] (H-MSRRWFLISFW-NH2)"
  Value Unit: "%"
  viability: 99.2
